cell count for assorted compounds
measurement.description: supercomplex reporter luminescence per Hoechst cell count – Hoechst nuclei count (AID 1645838);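 note: control cybrid cells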
conditions.used: Cells, luminescence/Hoechst cell count ratio, measured here: cell number, Hoechst nuclei count, library stock concentration (final well concentration not given) 278 uM
The campaign covered roughly 2,000 compounds. About 100 (5%) were called active. What follows is part of a selection rich in actives, with near analogues and random picks from the rest.
// return a plain number; no unit text

The following compounds have reported results that may help.
O=C(NNS(=O)(=O)c1ccccc1C(F)(F)F)c1cc2cc(Cl)ccc2o1 :: 6790
COc1cc(Nc2c(C#N)cnc3cc(OCCCN4CCN(C)CC4)c(OC)cc23)c(Cl)cc1Cl :: 5890
COc1ccc(C(=O)CC2(O)C(=O)Nc3c(Cl)ccc(Cl)c32)cc1 (configuration not stated) :: 5870
O=C(Nc1nnc(-c2ccco2)o1)c1cc(-c2ccccc2)nc2ccccc12 :: 6010
CN1CCN(c2ccc(Nc3cc(-c4cccc(-n5ccc6cc(C7CC7)cc(F)c6c5=O)c4CO)cn(C)c3=O)nc2)CC1 :: 6260

Value of cell count reported for the compound CC(C)c1ccccc1OC(=O)NCCc1ccc2ccccc2c1 is 6210

Value of cell count reported for the compound CC(C)CC(NC(=O)NC(CCC(=O)O)C(=O)O)C(=O)O (configuration not stated) is 6530

Value of cell count reported for the compound O=C(O)c1cc(O)c2ccccc2c1O is 6080

* * *

measurement.description: supercomplex reporter luminescence per Hoechst cell count – Hoechst nuclei count (AID 1645838);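 note: control cybrid cells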
conditions.used: Cells, luminescence/Hoechst cell count ratio, measured here: cell number, Hoechst nuclei count
Screen size: about 2,000 compounds; about 100 (5%) were called active. The sample as a whole holds a higher share of actives than the screen did.
cell count for assorted compounds
// return a plain number; no unit text

The following compounds have reported results that may help.
Nc1ccccc1NC(=O)c1ccc(CNC(=O)OCc2cccnc2)cc1 :: 4300
CCCCCC(=O)CC[C@@H]1[C@@H](C/C=C\CCCC(=O)O)[C@@H](O)C[C@H]1O :: 5560
COc1ccc(CCCOC(Cn2ccnc2)c2ccc(OC)cc2)cc1 (stereo not drawn) :: 4930
CCC(O)/C=C/C=O (stereo not drawn) :: 4950
CCCCC[C@H](O)/C=C/[C@H]1CC[C@@H](O)[C@@H]1C/C=C\CCCC(=O)O :: 5720
CCCCCCCCC#CCC#CCC#CCCCC(=O)O :: 5310
O=C(O)CCC/C=C\C[C@@H]1C(=O)C[C@@H](O)[C@@H]1/C=C/[C@@H](O)CCc1ccccc1 :: 5100
CCCCC(C)(C)[C@H](O)/C=C/[C@@H]1[C@@H](C/C=C\CCCC(=O)O)[C@@H](O)C[C@H]1O :: 5200

Value of cell count reported for the compound NCCCNCCCCN(CCCN)[N+]([O-])=NO is 5110

Value of cell count reported for the compound O=C(c1cccs1)c1ccc(OCCCO)c(Cl)c1Cl is 5410

Value of cell count reported for the compound CCCCCCCC/C=C\CCCCCCCCCCCCCC(=O)N[C@@H](CO)[C@H](O)/C=C/CCCCCCCCCCCCC is 5540

Value of cell count reported for the compound CCCCC/C=C\C/C=C\C/C=C\C/C=C\CCCC(=O)NC[C@]1(C)CCC[C@]2(C)c3ccc(C(C)C)cc3CC[C@@H]12 is 4820

Value of cell count reported for the compound NC1=NC(=O)/C(=C/c2ccc(O)cc2)S1 is 5020

* * *

measurement.description: supercomplex reporter luminescence per Hoechst cell count – Hoechst nuclei count (AID 1645838);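 note: control cybrid cells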;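 for z-score: higher means more mitochondrial supercomplex formation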
conditions.used: Cells, luminescence/Hoechst cell count ratio, library stock concentration (final well concentration not given) 400 uM, stronger effect = higher value
In all, about 2,000 compounds went through this assay and about 100 (5%) were called active. The list comes from a sample in which actives are over-represented; it also holds close analogues and randomly drawn compounds.
Outcome: met for z-score of at least -0.2; not met for anything lower.

Use these answered entries as a reference point.
CC1=C(C(=O)Nc2ccccc2C)C(c2cccc([N+](=O)[O-])c2)C2=C(CCCC2=O)N1 (stereo not given) :: met
Nc1ncnc2c1c(-c1ccc(Oc3ccccc3)cc1)cn2C1CCCC1 :: met
CC(O)C(O)C1CNc2nc(N)[nH]c(=O)c2N1 (stereo not given) :: not met

Query string: For this molecule, is measured z-score -0.2 or higher? CCCCCC(O)CCC1C(O)C[C@H]2Cc3c(cccc3OCC(=O)O)C[C@@H]12 (stereo not given in full)
Result string: not met

Query string: For this molecule, is measured z-score -0.2 or higher? Cc1nc2ccc(-n3ncc(C(=O)c4cc5ccccc5[nH]4)c3N)cc2[nH]1
Result string: not met

* * *

cell count for assorted molecules
measurement.description: supercomplex reporter luminescence per Hoechst cell count – Hoechst nuclei count (AID 1645838);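 note: control cybrid cells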
conditions.used: Cells, luminescence/Hoechst cell count ratio, measured here: cell number, Hoechst nuclei count, library stock concentration (final well concentration not given) 10 mM
About 100 (5%) of roughly 2,000 compounds were called active. The sample holds actives, similar compounds and a random draw of the others, so the mix is not that of the screen.

Value of cell count reported for the molecule COc1cc(OC)c(NC(=O)Nc2cc(C)on2)cc1Cl is 5990

Value of cell count reported for the molecule O=C(NNS(=O)(=O)c1ccccc1C(F)(F)F)c1cc2cc(Cl)ccc2o1 is 6850

Value of cell count reported for the molecule COc1cc2nccc(Oc3ccc(NC(=O)Nc4cc(C)on4)c(Cl)c3)c2cc1OC is 1710

* * *

measurement.description: supercomplex reporter luminescence per Hoechst cell count – Hoechst nuclei count (AID 1645838);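 note: control cybrid cells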;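 for z-score: higher means more mitochondrial supercomplex formation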
conditions.used: Cells, luminescence/Hoechst cell count ratio, library stock concentration (final well concentration not given) 10 mM, stronger effect = higher value
Screen size: about 2,000 compounds; about 100 (5%) were called active. Shown is part of a subset that was picked to be rich in actives.
measured.quantity: z-score

Cc1cc(CS(=O)(=O)c2ccccc2)cc(OCc2ccc(CN3CCCC3CO)cc2)c1 (centres undefined) :: -0.221 (inactive)
CCOc1cc(CC(=O)NC(CC(C)C)c2ccccc2N2CCCCC2)ccc1C(=O)O (centres undefined) :: -0.204 (inactive)
COc1cc(N2CCOCC2)ccc1Nc1ncc(F)c(Nc2ccccc2NS(C)(=O)=O)n1 :: 3.16 (active)

Value of z-score reported for the molecule C#Cc1cccc(Nc2ncnc3cc(OCCOC)c(OCCOC)cc23)c1 is 2.02 (active)

* * *

z-score for assorted compounds
measurement.description: supercomplex reporter luminescence per Hoechst cell count – Hoechst nuclei count (AID 1645838);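 note: control cybrid cells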;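 for z-score: higher means more mitochondrial supercomplex formation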
conditions.used: Cells, luminescence/Hoechst cell count ratio, library stock concentration (final well concentration not given) 80 uM, stronger effect = higher value
Out of some 2,000 compounds screened, about 100 (5%) were called active. The full list was thinned out, with actives kept by preference.
// return a plain number; no unit text

The following compounds have reported results that may help.
COc1cc(C(=O)NC2CCN(C)CC2)ccc1Nc1ncc2c(n1)N(C1CCCC1)C(C)CC(=O)N2C (stereo not given) :: -0.18
Oc1ccc(C=NN(Cc2ccccc2)Cc2ccccc2)cc1 :: 0.58
CC1(C)OC2CO[C@@]3(COS(N)(=O)=O)OC(C)(C)OC3C2O1 (stereo not given in full) :: 0.166
COc1ccc(Br)c(-c2nc3ccccc3c(=O)o2)c1 :: -0.298
COc1cc(N2CCOCC2)ccc1Nc1ncc(F)c(Nc2ccccc2NS(C)(=O)=O)n1 :: -0.351

Now for another entry.
Value of z-score reported for the compound O=C(c1cc(Cc2n[nH]c(=O)c3ccccc23)ccc1F)N1CCN(C(=O)C2CC2)CC1 is -0.363

* * *

measurement.description: supercomplex reporter luminescence per Hoechst cell count – Hoechst nuclei count (AID 1645838);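 note: control cybrid cells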;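 for z-score: higher means more mitochondrial supercomplex formation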
conditions.used: Cells, luminescence/Hoechst cell count ratio, library stock concentration (final well concentration not given) 278 uM, stronger effect = higher value
About 100 (5%) of roughly 2,000 compounds were called active. This is one part of a sample in which actives are shown more often than they occur.
// class assignment uses z-score with these ranges: zone 1 (below -0.2), zone 2 (-0.2 to below 0.05), zone 3 (0.05 or more)

Query string: Sort O=C(Nc1nnc(-c2ccco2)o1)c1cc(-c2ccccc2)nc2ccccc12 into one of the categories.
Result string: zone 3

* * *

measurement.description: supercomplex reporter luminescence per Hoechst cell count – Hoechst nuclei count (AID 1645838);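 note: control cybrid cells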;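 for z-score: higher means more mitochondrial supercomplex formation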
conditions.used: Cells, luminescence/Hoechst cell count ratio, library stock concentration (final well concentration not given) 46 uM, stronger effect = higher value
In all, about 2,000 compounds went through this assay and about 100 (5%) were called active. Shown is part of a subset that was picked to be rich in actives. Positions of bridges follow the written chain, without caps; N, C: chain ends. Non-standard residues stand in square brackets, D forms with d. Residues, ends and D or L forms follow the SMILES beside them. hArg = N=C(N)NCCCC[CH](N)C(=O)O; Mpa = O=C(O)CCS
z-score for assorted compounds

The following compounds have reported results that may help.
NC(=O)Nc1sc(-c2ccc(F)cc2)cc1C(N)=O :: -0.164 (inactive)
COc1cc(Nc2c(C#N)cnc3cc(OCCCN4CCN(C)CC4)c(OC)cc23)c(Cl)cc1Cl :: -0.0511 (inactive)
O=c1cc(-c2cccc3c2Sc2ccccc2S3)oc(N2CCOCC2)c1 :: -0.163 (inactive)

Value of z-score reported for the compound CC=C(C)C(=O)OC1C(C)=C[C@]23C(=O)C(C=C(CO)C(O)[C@]12O)C1C(CC3C)C1(C)C (stereo partly drawn) is 1.37 (inactive)

Value of z-score reported for the compound COc1cc2c(Oc3ccc4[nH]c(C)cc4c3F)ncnc2cc1OCCCN1CCCC1 is -0.259 (inactive)

Value of z-score reported for the compound CS(=O)(=O)N1CCN(Cc2cc3nc(-c4cccc5[nH]ncc45)nc(N4CCOCC4)c3s2)CC1 is -0.278 (inactive)

Value of z-score reported for the compound O=C(Nc1nnc(-c2ccco2)o1)c1cc(-c2ccccc2)nc2ccccc12 is 0.451 (inactive)

Value of z-score reported for the compound O=C(NC1CCN(CC(F)(F)F)CC1)c1ccc(-c2cccc(F)c2)nc1 is -0.25 (inactive)

Value of z-score reported for the compound CCCCCc1ccc(C=CC(=O)Nc2ccccc2C(=O)O)cc1 is 0.0102 (inactive)

Value of z-score reported for the compound COC(=O)NC(C)CNc1nccc(-c2cn(C(C)C)nc2-c2cc(Cl)cc(NS(C)(=O)=O)c2F)n1 (stereo not drawn) is -0.459 (inactive)

Value of z-score reported for the compound O=C(Cc1cccc(OC(F)(F)F)c1)Nc1ccc(CCCCc2nnc(NC(=O)Cc3ccccn3)s2)nn1 is 1.3 (inactive)

Value of z-score reported for the compound NC(=O)C1CSSCCC(=O)NC(CCCCN=C(N)N)C(=O)NCC(=O)NC(CC(=O)O)C(=O)NC(Cc2c[nH]c3ccccc23)C(=O)N2CCCC2C(=O)N1 (stereo not drawn) ([Mpa][hArg]GDWPC-NH2; disulfide 1-7; configuration not given here) is -0.201 (inactive)

Value of z-score reported for the compound CC(C)(C)CC1NC(C(=O)NC2CCC(O)CC2)C(c2cccc(Cl)c2F)[C@]12C(=O)Nc1cc(Cl)ccc12 (stereo partly drawn) is -0.637 (inactive)
